inhibition at 10 min, 20 µM values by entry
Target: P-gp (ABCB1) (Homo sapiens)
Experiment: Inhibition of human Pgp expressed in mouse L5178Y cells assessed as reversal of chemoresistance at 20 uM after 10 mins by flow cytometric analysis
Type: cell-based

{"Molecule": "COc1ccc(C(=O)O[C@H]2[C@@H](C)C[C@]3(OC(C)=O)C(=O)/C(C)=C/[C@@H]4[C@H](CC/C(C)=C/[C@@H]23)C4(C)C)cc1 [JOLKINOATE K]", "inhibition at 10 min, 20 µM (%)": 95}
{"Molecule": "CC(=O)O[C@]12C[C@H](C)[C@H](OC(=O)c3ccccc3)[C@@H]1/C=C(\\C)CC[C@H]1[C@@H](/C=C(\\C)C2=O)C1(C)C [JOLKINOATE I]", "inhibition at 10 min, 20 µM (%)": 70.2}

----------
selectivity ratio values by entry
Test system: P-glycoprotein 1 / MDR1 (Homo sapiens)
Assay: Selectivity index, ratio of IC50 for chemosensitive mouse L5178Y cells to IC50 for chemoresistant mouse L5178Y cells expressing human MDR1 gene

{"Molecule": "CC(=O)O[C@H]1[C@@H](C)C[C@]2(OC(C)=O)C(=O)/C(C)=C/[C@@H]3[C@H](CC/C(C)=C/[C@@H]12)C3(C)C [JOLKINOATE A]", "selectivity ratio": 0.6}
{"Molecule": "CCCC(=O)O[C@H]1[C@@H](C)C[C@]2(OC(C)=O)C(=O)/C(C)=C/[C@@H]3[C@H](CC/C(C)=C/[C@@H]12)C3(C)C [JOLKINOATE C]", "selectivity ratio": 0.9}
{"Molecule": "CC(=O)O[C@]12C[C@H](C)[C@H](O)[C@@H]1/C=C(\\C)CC[C@H]1[C@@H](/C=C(\\C)C2=O)C1(C)C [JOLKINOL D]", "selectivity ratio": 0.9}
{"Molecule": "CC(=O)O[C@]12C[C@H](C)[C@H](OS(=O)(=O)c3ccccc3)[C@@H]1/C=C(\\C)CC[C@H]1[C@@H](/C=C(\\C)C2=O)C1(C)C [JOLKINOATE M]", "selectivity ratio": 0.8}
{"Molecule": "CC(=O)O[C@]12C[C@H](C)[C@H](OC(=O)c3ccc(C)cc3)[C@@H]1/C=C(\\C)CC[C@H]1[C@@H](/C=C(\\C)C2=O)C1(C)C [JOLKINOATE J]", "selectivity ratio": 0.9}
{"Molecule": "CCC(CC)C(=O)O[C@H]1[C@@H](C)C[C@]2(OC(C)=O)C(=O)/C(C)=C/[C@@H]3[C@H](CC/C(C)=C/[C@@H]12)C3(C)C [JOLKINOATE F]", "selectivity ratio": 1}
{"Molecule": "CCCCCCCCCCCC(=O)O[C@H]1[C@@H](C)C[C@]2(OC(C)=O)C(=O)/C(C)=C/[C@@H]3[C@H](CC/C(C)=C/[C@@H]12)C3(C)C [JOLKINOATE D]", "selectivity ratio": 0.6}
{"Molecule": "CC(=O)O[C@]12C[C@H](C)[C@H](OC(=O)c3cccc(C(F)(F)F)c3)[C@@H]1/C=C(\\C)CC[C@H]1[C@@H](/C=C(\\C)C2=O)C1(C)C [JOLKINOATE L]", "selectivity ratio": 0.8}
{"Molecule": "CCCCC(CC)C(=O)O[C@H]1[C@@H](C)C[C@]2(OC(C)=O)C(=O)/C(C)=C/[C@@H]3[C@H](CC/C(C)=C/[C@@H]12)C3(C)C (some centres undefined) [JOLKINOATE G]", "selectivity ratio": 0.4}

----------
Target: ATP-dependent translocase ABCB1 (Homo sapiens, UniProt P08183)
Sequence (P08183 whole entry): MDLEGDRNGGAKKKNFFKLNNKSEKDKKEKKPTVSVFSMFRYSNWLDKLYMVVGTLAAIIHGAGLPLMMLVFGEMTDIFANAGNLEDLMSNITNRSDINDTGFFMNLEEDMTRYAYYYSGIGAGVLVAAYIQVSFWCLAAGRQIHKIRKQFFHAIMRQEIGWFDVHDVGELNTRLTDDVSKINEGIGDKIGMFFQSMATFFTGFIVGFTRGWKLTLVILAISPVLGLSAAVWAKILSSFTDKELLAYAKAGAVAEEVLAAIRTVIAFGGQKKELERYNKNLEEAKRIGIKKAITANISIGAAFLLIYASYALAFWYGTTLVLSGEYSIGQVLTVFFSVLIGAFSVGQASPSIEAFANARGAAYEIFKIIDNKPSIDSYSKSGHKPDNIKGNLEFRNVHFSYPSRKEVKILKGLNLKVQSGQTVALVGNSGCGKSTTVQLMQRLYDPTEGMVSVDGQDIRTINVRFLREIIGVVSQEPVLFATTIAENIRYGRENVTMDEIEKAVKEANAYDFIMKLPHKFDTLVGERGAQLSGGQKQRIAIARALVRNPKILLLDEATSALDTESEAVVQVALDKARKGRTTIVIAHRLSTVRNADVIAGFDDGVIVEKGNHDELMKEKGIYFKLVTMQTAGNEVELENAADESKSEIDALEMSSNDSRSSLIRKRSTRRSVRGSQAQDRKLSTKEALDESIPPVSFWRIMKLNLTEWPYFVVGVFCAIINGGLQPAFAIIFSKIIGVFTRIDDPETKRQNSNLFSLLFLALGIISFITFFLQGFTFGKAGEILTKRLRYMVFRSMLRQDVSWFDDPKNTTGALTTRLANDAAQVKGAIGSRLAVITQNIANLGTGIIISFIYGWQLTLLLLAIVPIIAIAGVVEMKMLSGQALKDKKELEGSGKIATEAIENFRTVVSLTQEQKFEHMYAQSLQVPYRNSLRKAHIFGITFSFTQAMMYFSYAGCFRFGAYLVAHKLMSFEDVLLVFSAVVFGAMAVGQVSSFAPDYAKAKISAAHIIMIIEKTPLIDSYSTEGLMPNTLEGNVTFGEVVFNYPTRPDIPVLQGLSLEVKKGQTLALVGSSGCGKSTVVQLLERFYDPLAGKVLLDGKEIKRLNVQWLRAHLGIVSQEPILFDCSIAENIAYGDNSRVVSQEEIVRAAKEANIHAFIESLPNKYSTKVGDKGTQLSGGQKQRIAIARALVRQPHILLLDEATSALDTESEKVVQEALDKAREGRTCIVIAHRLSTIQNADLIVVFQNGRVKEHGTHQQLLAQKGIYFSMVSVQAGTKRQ
Assay: Inhibition of human Pgp expressed in mouse L5178Y cells assessed as potentiation of doxorubicin-induced cytotoxicity after 48 hrs by MTT assay
Format: cell-based
Value kind: CI

{"Compound": "CC(=O)O[C@]12C[C@H](C)[C@H](OC(=O)c3ccccc3)[C@@H]1/C=C(\\C)CC[C@H]1[C@@H](/C=C(\\C)C2=O)C1(C)C [JOLKINOATE I]", "Measured number": 0.35}
{"Compound": "COc1ccc(C(=O)O[C@H]2[C@@H](C)C[C@]3(OC(C)=O)C(=O)/C(C)=C/[C@@H]4[C@H](CC/C(C)=C/[C@@H]23)C4(C)C)cc1 [JOLKINOATE K]", "Measured number": 0.3}
{"Compound": "CCC(CC)C(=O)O[C@H]1[C@@H](C)C[C@]2(OC(C)=O)C(=O)/C(C)=C/[C@@H]3[C@H](CC/C(C)=C/[C@@H]12)C3(C)C [JOLKINOATE F]", "Measured number": 0.25}

----------
Target: ATP-dependent translocase ABCB1 (Homo sapiens)
Assay: Inhibition of human Pgp expressed in mouse L5178Y cells assessed as potentiation of doxorubicin-induced cytotoxicity after 48 hrs by MTT assay
Assay type: cell-based
CI values by entry

{"Compound": "CC(=O)O[C@H]1[C@@H](C)C[C@]2(OC(C)=O)C(=O)/C(C)=C/[C@@H]3[C@H](CC/C(C)=C/[C@@H]12)C3(C)C [JOLKINOATE A]", "CI": 0.18}
{"Compound": "CC(=O)O[C@]12C[C@H](C)[C@H](O)[C@@H]1/C=C(\\C)CC[C@H]1[C@@H](/C=C(\\C)C2=O)C1(C)C", "CI": 0.26}
{"Compound": "CCCCC(CC)C(=O)O[C@H]1[C@@H](C)C[C@]2(OC(C)=O)C(=O)/C(C)=C/[C@@H]3[C@H](CC/C(C)=C/[C@@H]12)C3(C)C (stereo partly specified) [JOLKINOATE G]", "CI": 0.31}
{"Compound": "CC(=O)O[C@]12C[C@H](C)[C@H](OC(=O)c3ccc(C)cc3)[C@@H]1/C=C(\\C)CC[C@H]1[C@@H](/C=C(\\C)C2=O)C1(C)C [JOLKINOATE J]", "CI": 0.26}
{"Compound": "CC(=O)O[C@]12C[C@H](C)[C@H](OC(=O)c3cccc(C(F)(F)F)c3)[C@@H]1/C=C(\\C)CC[C@H]1[C@@H](/C=C(\\C)C2=O)C1(C)C [JOLKINOATE L]", "CI": 0.27}
{"Compound": "C/C1=C\\[C@H]2[C@@H](O)[C@@H](C)C[C@]2(O)C(=O)/C(C)=C/[C@@H]2[C@H](CC1)C2(C)C", "CI": 0.65}
{"Compound": "CCCC(C)C(=O)O[C@H]1[C@@H](C)C[C@]2(OC(C)=O)C(=O)/C(C)=C/[C@@H]3[C@H](CC/C(C)=C/[C@@H]12)C3(C)C (stereo partly specified) [JOLKINOATE E]", "CI": 0.23}
{"Compound": "CCCC(=O)O[C@H]1[C@@H](C)C[C@]2(OC(C)=O)C(=O)/C(C)=C/[C@@H]3[C@H](CC/C(C)=C/[C@@H]12)C3(C)C [JOLKINOATE C]", "CI": 0.39}
{"Compound": "CC(=O)O[C@]12C[C@H](C)[C@H](OS(=O)(=O)c3ccccc3)[C@@H]1/C=C(\\C)CC[C@H]1[C@@H](/C=C(\\C)C2=O)C1(C)C [JOLKINOATE M]", "CI": 0.21}
{"Compound": "CCCCCCCCCCCC(=O)O[C@H]1[C@@H](C)C[C@]2(OC(C)=O)C(=O)/C(C)=C/[C@@H]3[C@H](CC/C(C)=C/[C@@H]12)C3(C)C [JOLKINOATE D]", "CI": 2.02}
{"Compound": "CCC(=O)O[C@H]1[C@@H](C)C[C@]2(OC(C)=O)C(=O)/C(C)=C/[C@@H]3[C@H](CC/C(C)=C/[C@@H]12)C3(C)C [JOLKINOATE B]", "CI": 0.34}

----------
Target: ATP-dependent translocase ABCB1 (Homo sapiens)
Assay: Inhibition of human Pgp-mediated rhodamine 123 efflux expressed in mouse L5178Y cells assessed as fluorescence activity ratio at 20 uM after 10 mins by flow cytometric analysis
Format: cell-based
Ratio values by entry

{"Compound": "CC(=O)O[C@]12C[C@H](C)[C@H](OC(=O)c3ccccc3)[C@@H]1/C=C(\\C)CC[C@H]1[C@@H](/C=C(\\C)C2=O)C1(C)C [JOLKINOATE I]", "Test target": "ATP-dependent translocase ABCB1 (Homo sapiens)", "Ratio": 84.22}
{"Compound": "CCC(CC)C(=O)O[C@H]1[C@@H](C)C[C@]2(OC(C)=O)C(=O)/C(C)=C/[C@@H]3[C@H](CC/C(C)=C/[C@@H]12)C3(C)C [JOLKINOATE F]", "Test target": "ATP-dependent translocase ABCB1 (Homo sapiens)", "Ratio": 77.25}
{"Compound": "CCCCCCCCCCCC(=O)O[C@H]1[C@@H](C)C[C@]2(OC(C)=O)C(=O)/C(C)=C/[C@@H]3[C@H](CC/C(C)=C/[C@@H]12)C3(C)C [JOLKINOATE D]", "Test target": "ATP-dependent translocase ABCB1 (Homo sapiens)", "Ratio": 25.69}
